B1: HDV Ribozyme (parent)
chain: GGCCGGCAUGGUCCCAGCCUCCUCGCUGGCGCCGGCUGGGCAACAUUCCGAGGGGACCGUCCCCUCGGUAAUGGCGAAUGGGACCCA

# Variants of: B1
# Method: self-cleavage, relative activity (ratio to wild type); higher = more cleavage; co-transcriptional
Readout Label: self-cleavage
Answer with a bare number; do not write a unit.

[[record]]
ordered_residues = "GGCCGGCAUGGUCCCAGCCUCCUCGCUGGCGCCGGCUGGGCAACCUUCCGAGGGGACCGUCCCCUCGGUAAUGGCGAAUGGAACCCA [A45C G82A]"
value_measured = 0.208


Request: Any idea what self-cleavage was measured for GGCCGGCAUGGGCCCAGCCUCCUCGCUGGGGCCGGCUGGGCAACAUUCCGAGGGGACCGUCCCCUCGGUAAUGGCGAAUGGGACCCA [U12G C30G] ?
Result: 0

Request: Data request, read-out self-cleavage, for GGACGGCAUGGUCCCAGCCUCCUCGCUGGCGCCGGCUGGGCAACAUUCCGAGGGGACCGUCCCCUGGGUAAUGGCGAAUGGGACCCA [C3A C66G]
Result: 0.508

Request: Please look up its self-cleavage: GGCCGGCAUGGUCCCAGGCUCGUCGCUGGCGCCGGCUGGGCAACAUUCCGAGGGGACCGUCCCCUCGGUAAUGGCGAAUGGGACCCA [C18G C22G]
Result: 0.0755

Request: Recorded self-cleavage for GGCCGGCAUGGUCCCAGCCUCCUCGCUGGCGACGGCUGGGCAACAUUCCGAGGGGACCGUCCCCUCGGUAUUGGCGAAUGGGACCCA [C32A A71U] , please?
Result: 0.222

Request: What self-cleavage value was documented for this variant, GGCCGGCAUGGUCCCAGCCUCCUCGCUGGCGCCGGCUGGGCAACAUCGCGAGGGGACCGUCCCCUCGGUAAUGGCGAAUGGGACCCA [U47C C48G] ?
Result: 0.804

Request: Recorded self-cleavage for GGCCGGCAUGGUCCCAGCUUCCUCGCUGGCGCCGGCUGGGCAACAUUCCGAGGGGACCGUCCCCUCGGUAAUGGGGAAUGGGACCCA [C19U C75G] , please?
Result: 0.0739
